# Tested on: A498 renal
# assay.summary: NCI tumour cell line growth inhibition, 48 h
metric: TGI (µM)
Answers are plain numbers, in µM.

// solved cases for TGI follow
CC1=C(C(=O)Nc2ccccc2)C(c2cccc3ccccc23)C(C(=O)Nc2ccccc2)=C(C)N1 | 48.5
CCCCCCCCCCCCCCCCCCn1cc[n+](C)c1 | 3.09
CC1CC/C(=C\c2ccc(F)cc2)C(=O)/C1=C/c1ccc(F)cc1 (configuration not stated) | 25.3

Item COC(=O)c1ccc(CN2C(=O)C(Cl)=C(Nc3cccc(Cl)c3C)C2=O)cc1 ; assay system A498 renal; TGI reported as 15.2

====

Hi there, I'd appreciate the recorded TGI for every entry that follows.
# Test system: MCF7 breast
# assay.summary: NCI tumour cell line growth inhibition, 48 h
Answers are plain numbers, in µM.

// solved cases for TGI follow
O=C(Nc1cccc(O)c1)c1ccc(NC2=C(Cl)C(=O)N(Cc3ccc(Cl)cc3Cl)C2=O)cc1 | 4.29
CCN(CC)CCCNc1cc(OC)cc2nc3cc(Cl)ccc3nc12 | 6.51

// switching to the query compound
Reported TGI ( COc1cc(OC)cc(-c2n/c(=C\c3c(O)[nH]c4ccc(OC)cc34)cc3c2=Nc2ccccc2-3)c1 ) = 3.41

Origin of measurements: PubChem BioAssay (NCI)
